Item-by-item account of EC50
Test system: Human immunodeficiency virus 1
Experiment: Antiviral activity against Human immunodeficiency virus 1 isolate M2 expressing protease L10I, I13V, M46I, I50V, L63P, L76V mutant infected in human MT4 cells
Format: functional, organism-based
Conditions: Human immunodeficiency virus 1, isolate M2, MT4
Report as a plain number; the unit nM is understood.

Recorded results for 8 compounds are shown here.
Form field EC50, entry `CNc1nc2ccc(S(=O)(=O)N(CC(C)C)C[C@@H](O)[C@H](Cc3ccccc3)NC(=O)O[C@H]3CO[C@H]4OC[C@H](OCc5ccc(F)cc5)[C@H]43)cc2o1` : 2.3

Form field EC50, entry `CNc1nc2ccc(S(=O)(=O)N(CC(C)C)C[C@@H](O)[C@H](Cc3ccccc3)NC(=O)O[C@H]3CO[C@H]4OCC[C@H]43)cc2o1` : 3.2

Form field EC50, entry `CC(C)CN(C[C@@H](O)[C@H](Cc1ccccc1)NC(=O)O[C@H]1CO[C@H]2OC[C@H](OCc3ccccc3)[C@H]21)S(=O)(=O)c1ccc(N)cc1` : 18

Form field EC50, entry `CC(C)CN(C[C@@H](O)[C@H](Cc1ccccc1)NC(=O)O[C@H]1CO[C@H]2OC[C@H](O)[C@H]21)S(=O)(=O)c1ccc(N)cc1` : 204

Form field EC50, entry `CNc1nc2ccc(S(=O)(=O)N(CC(C)C)C[C@@H](O)[C@H](Cc3ccccc3)NC(=O)O[C@H]3CO[C@H]4OC[C@H](OCCOC)[C@H]43)cc2o1` : 10.8

Form field EC50, entry `COC(=O)N[C@H](C(=O)N[C@@H](Cc1ccccc1)[C@@H](O)CN(Cc1ccc(-c2ccccn2)cc1)NC(=O)[C@@H](NC(=O)OC)C(C)(C)C)C(C)(C)C` : 3.2

Form field EC50, entry `CNc1nc2ccc(S(=O)(=O)N(CC(C)C)C[C@@H](O)[C@H](Cc3ccccc3)NC(=O)O[C@H]3CO[C@H]4OC[C@H](OCc5cccc(F)c5)[C@H]43)cc2o1` : 1.7

Form field EC50, entry `COCCO[C@H]1CO[C@@H]2OC[C@H](OC(=O)N[C@@H](Cc3ccccc3)[C@H](O)CN(CC(C)C)S(=O)(=O)c3ccc(N)cc3)[C@@H]21` : 71.4

***
Form field EC50, entry `CC(C)CN(C[C@@H](O)[C@H](Cc1ccccc1)NC(=O)O[C@H]1CO[C@H]2OCC[C@H]21)S(=O)(=O)c1ccc(N)cc1` : 51

Form field EC50, entry `CNc1nc2ccc(S(=O)(=O)N(CC(C)C)C[C@@H](O)[C@H](Cc3ccccc3)NC(=O)O[C@H]3CO[C@H]4OC[C@H](O)[C@H]43)cc2o1` : 108

Form field EC50, entry `CNc1nc2ccc(S(=O)(=O)N(CC(C)C)C[C@@H](O)[C@H](Cc3ccccc3)NC(=O)O[C@H]3CO[C@H]4OC[C@H](OCc5ccccc5F)[C@H]43)cc2o1` : 2.1

Form field EC50, entry `CNc1nc2ccc(S(=O)(=O)N(CC(C)C)C[C@@H](O)[C@H](Cc3ccccc3)NC(=O)O[C@H]3CO[C@H]4OC[C@H](OCc5ccccc5)[C@H]43)cc2o1` : 3.4

Form field EC50, entry `Cc1cccc(C)c1OCC(=O)N[C@@H](Cc1ccccc1)[C@@H](O)C[C@H](Cc1ccccc1)NC(=O)[C@H](C(C)C)N1CCCNC1=O` : 307

Form field EC50, entry `CC(C)CN(C[C@@H](O)[C@H](Cc1ccccc1)NC(=O)O[C@H]1CO[C@H]2OC[C@H](Oc3ccccc3)[C@H]21)S(=O)(=O)c1ccc(N)cc1` : 249
